target-of-assay: recombinant human EPPIN (Homo sapiens, UniProt O95925)
Construct: made in house; host or cells: E. coli strain OrigamiB-DE3-pLysS
Sequence (O95925 22-133): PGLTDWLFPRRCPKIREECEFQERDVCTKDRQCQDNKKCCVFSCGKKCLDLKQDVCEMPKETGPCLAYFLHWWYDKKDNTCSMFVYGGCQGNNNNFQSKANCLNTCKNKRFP
experiment-summary: Epitope ALPHA (AlphaScreen) assay, EPPIN / anti-EPPIN antibody binding
test-settings: EPPIN on donor beads, anti-EPPIN antibody on acceptor beads
readout-name: inhibitory activity in the epitope ALPHA assay

COC(=O)CCSc1cc(NNC(=O)OC)cc(Cc2ccc(CC(C)=O)c(O)c2)n1 [EP101] :: inhibitory activity
COC(=O)CCSc1cc(NNC(=O)OC)nc(Cc2ccc(NC(C)=O)c(O)c2)n1 [EP100] :: inhibitory activity
COC(=O)NNc1nc(Nc2ccc(NC(C)=O)c(O)c2)nc(SCCCC(=O)O)n1 [EP096] :: inhibitory activity
CO/N=C/c1ccc(Cc2cc(NNC(=O)OC)cc(SCCC(=O)OC)n2)cc1O [EP103] :: inhibitory activity
CO/N=C/c1ccc(Cc2cc(NNC(=O)OC)cc(SCCC(=O)O)n2)cc1O [EP104] :: inhibitory activity
COC(=O)CCCSc1nc(NNC(=O)OC)nc(Nc2ccc(NC(C)=O)c(O)c2)n1 [EP098] :: inhibitory activity

Look at this molecule and give its reported inhibitory activity in the epitope ALPHA assay. COC(=O)NNc1nc(Nc2ccc(NC(C)=O)c(O)c2)nc(SCCC(=O)O)n1 [EP083]
inhibitory activity

What do we get for COC(=O)NNc1nc(Nc2ccc(NC(C)=O)c(O)c2)nc(SCCC(C)=O)n1 [EP091] ?
inhibitory activity

What do we get for COC(=O)CCSc1nc(NNC(=O)OC)nc(Nc2ccc(NC(C)=O)c(O)c2)n1 [EP082] ?
inhibitory activity

What do we get for CO/N=C/c1ccc(Cc2nc(NNC(=O)OC)cc(SCCC(=O)OC)n2)cc1O [EP102] ?
inhibitory activity

Reference source: patent US20230390298A1
